Numbers sourced from the NIST ThermoML archive (doi:10.1021/je9004189).

Assay: refractive index (Na D-line) (dimensionless)
Settings: 293.15 K; 101.33 kPa; Liquid; Standard Abbe refractometry

| COMPOUND | refractive index |
| --- | --- |
| CC(C)=O | 1.359 |
| c1ccccc1 | 1.5011 |
| CO | 1.3301 |
| CCO | 1.366 |
